Where do the numbers come from? From ChEMBL document CHEMBL5390227.

- experiment.description: Selectivity index, ratio of IC50 for cytotoxicity against mouse L929 cells to IC50 for antiproliferative activity against mouse B16-F10 cells
- Type: toxicity, cell-based
- recorded.conditions: L929 cells versus B16-F10 cells, read-out: Ratio IC50
result.type: selectivity ratio

> print(dat)
                              sample.smiles        result.type  readout.value
1  COc1cc(-c2nc(N)[nH]c2-c2ccc3ccccc3n2)cc(OC)c1OC  selectivity ratio           2.76

====

- experiment.description: Aqueous stability of the compound in PBS assessed as absorbance at 40 uM measured at pH 7.2 after 24 hrs by spectrophotometer analysis
- Type: physicochemical
- recorded.conditions: read-out: Stability
result.type: remaining at 24 h, 40 µM

> print(dat)
                            sample.smiles  readout.value
1  COc1ccc(/C=C\c2cc(OC)c(OC)c(OC)c2)cc1O            47%
